B1: HSP90AB1 (parent)
chain: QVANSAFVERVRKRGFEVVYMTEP

Variants of: B1
protocolDetails: protein stability index of a GFP-peptide fusion (GPS, HEK-293T) (PSI 1-6); higher = more stable;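 note: lentivirally expressed fusions sorted by FACS into six bins by GFP to DsRed ratio, PSI derived from sequencing read proportions per bin multiplied by bin number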
conditionDetails: c terminus: a fixed tail appended
readoutLabel: protein stability index
Give the figure only, with no unit attached.

Problem: Quick one: protein stability index of R14Y ?
Result: 2.21

Problem: Which value of protein stability index has been reported for E9M in the records?
Result: 2.69

Problem: Entry V8A : reported protein stability index = ?
Result: 2.33
